Reference for the values: patent US20150139990A1

# system-name: T1, human CD81 on CD81-expressing cells (Jurkat E6.1, human PBMC, Ramos) (human, UniProt P60033 1-236)
# T1 sequence: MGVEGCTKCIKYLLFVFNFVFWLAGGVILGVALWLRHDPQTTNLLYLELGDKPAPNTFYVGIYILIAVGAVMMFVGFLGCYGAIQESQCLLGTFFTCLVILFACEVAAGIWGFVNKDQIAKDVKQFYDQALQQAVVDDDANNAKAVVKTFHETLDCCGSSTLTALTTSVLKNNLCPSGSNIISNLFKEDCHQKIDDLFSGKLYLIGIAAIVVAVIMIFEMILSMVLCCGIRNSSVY
# procedure-summary: cell-based or functional assay
Define the label as Satisfied when Jurkat chemotaxis (% of control IgG4) at 0.1 µg/mL is strictly less than 30% and as Not satisfied in all remaining cases.

* 002-F07 (antibody, human IgG4 S228P, lambda, V domains shown, IgG4 S228P) VH: EVQLLESGGGLVQPGGSLRLSCAASGFTFSSNYMSWVRQAPGKGLEWVSYISSSSTYTDYADSVKGRFTISRDNSKNTLYLQMNSLRAEDTAVYYCARYSYGRDSFDYWGQGTLVTVSS VL: QSVLTQPFSASGTPGQRVTISCTGSTSNIGAGFDTHWYQQLPGTAPKLLIYGNSNRPSGVPDRFSGSKSGTTASLAISGLRSEDEADYYCQSYDTNLSVWVFGGGTKLTVLG | Not satisfied
* 003-D07 (antibody, human IgG4 S228P, lambda, V domains shown, IgG4 S228P) VH: EVQLLESGGGLVQPGGSLRLSCAASGFTFSSNYMSWVRQAPGKGLEWVSYISSSSTYTDYADSVKGRFTISRDNSKNTLYLQMNSLRAEDTAVYYCARYSYDRDNFDYWGQGTLVTVSS VL: QSVLTQPFSASGTPGQRVTISCTGSTSNIGAGYDTHWYQHLPGTAPKLLIYGNSNRPSGVPDRFSGSKSGTSASLAISGLRSEDEADYYCQSYDTNLSVWVFGGGTKLTVLG | Not satisfied
* 002-B07 (antibody, human IgG4 S228P, lambda, V domains shown, IgG4 S228P) VH: EVQLLESGGGLVQPGGSLRLSCAASGFTFSSNYMSWVRQAPGKGLEWVSYISSSSTYTDYADSVKGRFTISRDNSKNTLYLQMNSLRAEDTAVYYCARYSYGRDNFDYWGQGTLVTVSS VL: QSVLTQPSSASGTPGQRVTISCTGSTSNIGAGYDTHWYQQLPGTAPKLLIYGNSNRPSGVPDRFSGSKSGTSASLAISGLRSEDEADYYCQSYDTNLSGWVFGGGTKLTVLG | Satisfied
* 002-D10 (antibody, human IgG4 S228P, lambda, V domains shown, IgG4 S228P) VH: EVQLLESGGGLVQPGGSLRLSCAASGFTFSSNYMSWVRQAPGKGPEWVSYISSSSTYTDYADSVKGRFTISRDNSKNTLYLQMNSLRAEDTAVYYCARYSYGRDNFDYWGQGTLVTVSS VL: QSVLTQPSSASGTPGQRVTISCTGSTSNIGAGYDTHWYQQLPGTAPKLLIYGNSNRPSGVPDRFSGSKSGTSASLAVSGLRSEDEAEYYCQSYDTNLSGWVFGGGTKLTVLG | Not satisfied
* 003-A11 (antibody, human IgG4 S228P, lambda, V domains shown, IgG4 S228P) VH: EVQLLESGGGLVQPGGSLRLSCAASGFTFGSNYMSWVRQAPGKGLEWVSYISSSSTYTDYADSVKGRFTISRDNSKNTLYLQMNSLRAEDTAVYYCARYSYGRDNFDYWGQGTLVTVSS VL: QSVLTQPPSASGTPGQRVTISCTGSTSNIGAGYDTHWYQQLPGTAPKLLIYGNSNRPSGVPDRFSGSKSGTSASLAISGLRSEDEADYYCQSYDTNLSGWVFGGGTKLTVLG | Satisfied
* 002-H03 (antibody, human IgG4 S228P, lambda, V domains shown, IgG4 S228P) VH: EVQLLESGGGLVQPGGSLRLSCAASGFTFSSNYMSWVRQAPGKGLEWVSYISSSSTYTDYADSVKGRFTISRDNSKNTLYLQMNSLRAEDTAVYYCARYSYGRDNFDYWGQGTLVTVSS VL: QSVLTQPSSASGTPGQRVTISCTGSTSNIGAGYDTHWYQQLPGTAPKPLIYGNSNRPSGVPDRFSGSKSGTSASLAISGLRSEDEADYYCQSYDTNLSAWVFGGGTKLTVLG | Satisfied
* 002-F01 (antibody, human IgG4 S228P, lambda, V domains shown, IgG4 S228P) VH: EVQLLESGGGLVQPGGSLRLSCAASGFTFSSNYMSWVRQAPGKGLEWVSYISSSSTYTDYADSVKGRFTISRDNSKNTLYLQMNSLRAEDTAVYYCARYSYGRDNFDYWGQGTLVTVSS VL: QSVLTQPPSASGTPGQRVTISCTGSTSNIGAGYDTHWYQQLPGTAPKLLIYGNSNRPSGVPDRFSGSKSGTSASLAISGLRSEDEADYYCQSYDTNLSAWVFGGGTKLTVLG | Not satisfied
* 002-C09 (antibody, human IgG4 S228P, lambda, V domains shown, IgG4 S228P) VH: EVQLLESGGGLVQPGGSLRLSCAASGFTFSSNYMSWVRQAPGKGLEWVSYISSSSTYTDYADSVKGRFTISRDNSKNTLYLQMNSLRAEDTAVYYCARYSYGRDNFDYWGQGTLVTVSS VL: QSVLTQPASASGTPGQRVTISCTGSTSNIGAGYGTHWYQRLPGTAPKLLIYGNSNRPSGVPDRFSGSKSGTSASLAISGLRSEDEADYYCQSYDTNLSGWVFGGGTKLTVLG | Satisfied
* 001-B06 (antibody, human IgG4 S228P, lambda, V domains shown, IgG4 S228P) VH: EVQLLESGGGLVQPGGSLRLSCAASGFTFSSNYMSWVRQAPGKGLEWVSYISSSSTYTDYADSVKGRFTISRDNSKNTLYLQMNSLRAEDTAVYYCARYSYGRDTFDYWGQGTLVTVSS VL: QSVLTQPFSASGTPGQRVTISCTGSTSNIGAGYDTHWYQQLPGTAPKLLIYGNSNRPSGVPDRFSGSKSGTSASLAISGLRPEDEADYYCQSYDTSLSVWVFGGGTKLTVLG | Not satisfied
* 003-F08 (antibody, human IgG4 S228P, lambda, V domains shown, IgG4 S228P) VH: EVQLLESGGGLVQPGGSLRLSCAASGFTFSSNYMSWVRQAPGKGPEWVSYISSSSTYADYADSVKGRFTISRDNSKNTLYLQMNSLRAEDTAVYYCARYSYGRDNFDYWGQGTLVTVSS VL: QSVLTQPSSASGTPGQRVTISCTGSTSNIGAGYDTHWYQQLPGTAPKLLIYGNSNRPSGVPDRFSGSKSGTSASLAISGLRSEDEADYYCQSYDTNLSAWVFGGGTKLTVLG | Satisfied
